Values from patent US6706663B2

- Test system: GLXMAW (Soybean, Williams)
- experiment: Preemergence herbicidal evaluation
- Format: in vivo, Glycine max, (L.) Merr. cv Williams
- condition_label: Rate 0.1250 kg/ha; rated 4-5 weeks after treatment
Each record here notes measured Preemergence herbicidal rating GLXMAW.
endpoint_name: Preemergence herbicidal rating GLXMAW

INSERT INTO assay_data (compound, tested_target, endpoint_name, result) VALUES
  ('C[C@@H]1C[C@H](C)OC(c2nsc3cc(F)c(-n4c(=O)cc(C(F)(F)F)n(C)c4=O)cc23)O1 (stereo partly shown)', 'GLXMAW (Soybean, Williams)', 'Preemergence herbicidal rating GLXMAW', 9.0),
  ('Cn1c(C(F)(F)F)cc(=O)n(-c2ccc3snc(C4OC(=O)C(C)(C)O4)c3c2)c1=O (stereo not shown)', 'GLXMAW (Soybean, Williams)', 'Preemergence herbicidal rating GLXMAW', 4.5),
  ('CC1=CC(C)(C)OC(c2nsc3ccc(-n4c(=O)cc(C(F)(F)F)n(C)c4=O)cc23)C1 (stereo not shown)', 'GLXMAW (Soybean, Williams)', 'Preemergence herbicidal rating GLXMAW', 3.0),
  ('Cn1c(C(F)(F)F)cc(=O)n(-c2ccc3snc(C4=NCCO4)c3c2)c1=O', 'GLXMAW (Soybean, Williams)', 'Preemergence herbicidal rating GLXMAW', 1.0);
